Reported % Change Compared to pH 7.4 + Calcium is given for each of the following binders.
- testedOn: T1, recombinant, soluble human ASGR-1 (human, UniProt P07306 62-291)
- T1 construct: biotinylated in the binning assay; also called soluble huASGR-1; Soluble ASGR-1 (Amgen)
- T1 sequence: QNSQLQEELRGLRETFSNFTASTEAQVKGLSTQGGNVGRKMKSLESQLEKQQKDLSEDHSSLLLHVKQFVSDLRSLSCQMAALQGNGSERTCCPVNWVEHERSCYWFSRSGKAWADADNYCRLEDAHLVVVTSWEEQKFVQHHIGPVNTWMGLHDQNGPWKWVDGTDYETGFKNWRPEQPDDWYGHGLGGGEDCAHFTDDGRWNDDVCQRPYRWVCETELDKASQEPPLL
- method: Octet BLI dissociation, pH 5.6 minus calcium
Give the value in % but do not write % after it.

{"binder": "160B12 (antibody, V domains shown, hybridoma mAb) VH: QVQLVESGGGVVQPGRSLRLSCAASGFTFSSYGMHWVRQAPGKGLEWVAVIWYDGSNKYYADSVKGRFTISRDNSKNTLYLQMNSLRAEDTAVYYCARDRVSCSSTSCPYYYYYGMDVWGQGTTVTVSS VL: SDELTQSPSVSVSPGQTASITCSGDKLGDKYVCWYQQKPGQSPVLVIYQDSKRPSGIPERFSGSNSGNTATLTISGTQALDEADYYCQAWGNSSFVVFGGGTKLTVL", "quantityMeasured": "% Change Compared to pH 7.4 + Calcium", "observedMeasurement": 22}

Could you now consider this next binder?
Provide only the value of recorded % Change Compared to pH 7.4 + Calcium for 226F9 (antibody, V domains shown, hybridoma mAb) VH: QVQLVQSGAEVKKPGASVKVSCKASGYTFTGYYIHWVRQAPGQGLEWMGWINPYSGDTKYAQKFQGRVTMTRATSISTAYMELSRLRFDDTAVFYCARDWGGYSSYYYGMDVWGQGTTVTVSS VL: DIVMTQTPLSLSVTPGQPASISCKSSQSLLHSDGKTFLYWYLQKPGQPPQLLIYEISNRFSGVPDRFSGSGSGTDFTLKISRVEAEDVGIYYCMQSTQLPRTFGQGTKVEIK 77
